MEASUREMENT PROTOCOL: Mutagenicity in Salmonella typhimurium TA98 in absence of rat liver S9 fraction by AMES test
Type: toxicity
MEASUREMENT PARAMETERS: salmonella enterica subsp. enterica serovar typhimurium
PROPERTY NAME: Activity

Reference set, count: 5
Cc1ccc(CN2CCN(C(=O)C(=O)Nc3cc(F)c4[nH]ccc4c3)CC2)cc1
Toxic
Cc1ccc(CN2CCN(C(=O)C(=O)Nc3ccc4c(c3)c(C)cn4C)CC2)cc1
Toxic
O=C(NCc1ccc2[nH]ccc2c1)N1CC(COc2ccc(C(F)(F)F)cc2)C1
Non-Toxic
Cc1ccc(CN2CCN(C(=O)C(=O)Nc3ccc4[nH]c(C)c(C)c4c3)CC2)cc1
Toxic
Cc1ccc(CN2CCN(C(=O)C(=O)Nc3cc4ccn(C)c4cc3F)CC2)cc1
Toxic

So, "Cc1ccc(CN2CCN(C(=O)C(=O)Nc3ccc4c(c3)c(Cl)cn4C)CC2)cc1" ? Its Activity was Toxic

So, "Cc1ccc(CN2CCN(C(=O)C(=O)Nc3ccc4c(c3)c(F)cn4C)CC2)cc1" ? Its Activity was Toxic

So, "Cc1ccc(CN2CCN(C(=O)C(=O)Nc3ccc4c(F)cn(C)c4c3)CC2)cc1" ? Its Activity was Toxic

So, "Cc1ccc(CN2CCN(C(=O)C(=O)Nc3ccc4c(ccn4C)c3)CC2)cc1" ? Its Activity was Non-Toxic
